Reported growth by item:
tested on: SK-MEL-2 melanoma; experiment: NCI-60 one-dose screen, 48 h (100 = growth as untreated, 0 = no growth, -100 = all killed); conditions: 10 µM unless noted
Compounds without any hit were thinned out: in the full panel of roughly 83,000, 20% have a hit.
Form entry: value (%) — number only.

Request: Quick one: give measured growth for S=c1[nH]nc(-c2cc3ccc2CCc2ccc(cc2)CC3)n1C1CC1
Result: 110

Request: Give recorded growth. O=c1c2sc3ncccc3c2nnn1-c1ccccc1
Result: 101

Request: Answer with the recorded growth of CCN(CC)CCCNc1nccc2ccc(Cl)cc12 only.
Result: 114
